tested-target: PTP EPSILON (Homo sapiens)
Construct: made in house; host or cells: Sf-9 insect cells (pFastBac-G2T); a pGEX 6P-1 construct also existed
test-details: PTP IC50 assay, fluorescent substrate DiFMUP
Type: biochemical
readout-label: IC50

- compound: "O=[N+]([O-])c1cc(S(=O)(=O)C(F)(F)F)ccc1Oc1ccc(S(=O)(=O)c2ccc(Oc3ccc(S(=O)(=O)C(F)(F)F)cc3[N+](=O)[O-])cc2)cc1 [Example 63]"
  result: "2.4 µM"
- compound: "O=[N+]([O-])c1ccccc1NCC(COc1ccc(S(=O)(=O)C(F)(F)F)cc1[N+](=O)[O-])Oc1ccc(S(=O)(=O)C(F)(F)F)cc1[N+](=O)[O-] (stereo not drawn) [Example 57]"
  result: "0.6 µM"

For the next question, use this compound.
IC50 for O=[N+]([O-])c1ccc(NCC(COc2ccc(S(=O)(=O)C(F)(F)F)cc2[N+](=O)[O-])Oc2ccc(S(=O)(=O)C(F)(F)F)cc2[N+](=O)[O-])cc1 (stereo not drawn) [Example 59] is 38.1 µM

* * *

# reported pIC50; entries follow
tested-target: PTP SIGMA (Homo sapiens)
Construct: made in house; host or cells: E. coli BL-21 (pGEX 6P-1)
Sequence (Q13332 1320-1660 limits assumed): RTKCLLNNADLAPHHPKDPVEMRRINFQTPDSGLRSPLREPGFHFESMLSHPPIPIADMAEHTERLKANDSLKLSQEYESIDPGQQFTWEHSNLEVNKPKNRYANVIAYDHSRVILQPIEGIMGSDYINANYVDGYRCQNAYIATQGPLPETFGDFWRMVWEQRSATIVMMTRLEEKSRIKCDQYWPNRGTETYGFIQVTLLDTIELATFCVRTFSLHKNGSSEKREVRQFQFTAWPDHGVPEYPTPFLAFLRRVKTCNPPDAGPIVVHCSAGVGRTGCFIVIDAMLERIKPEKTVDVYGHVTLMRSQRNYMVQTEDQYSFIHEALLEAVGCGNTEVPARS
test-details: PTP IC50 assay, pNPP or FDP as substrate
Format: biochemical
measurement-parameters: comparison of R groups; read-out: IC50 Sigma
Please note pIC50 is a logarithmic value: minus log10 of concentration in mol/L. Answer with that number alone.

- item-smiles: "O=S(=O)(Nc1ccc(Oc2ccc(Oc3ccc(NS(=O)(=O)C(F)(F)F)cc3)cc2)cc1)C(F)(F)F"
  tested-target: "PTP SIGMA (Homo sapiens)"
  pIC50: 4.36

// next item, pIC50 requested
The measured pIC50 associated with "CS(=O)(=O)Nc1ccc(Oc2ccc(Oc3ccc(NS(C)(=O)=O)cc3)cc2)cc1" reads 4.66

* * *

tested-target: PTP MEG2 (Homo sapiens, UniProt P43378)
Construct: made in house; host or cells: E. coli BL-21 (pGEX 6P-1)
Sequence (P43378 262-593 limits assumed): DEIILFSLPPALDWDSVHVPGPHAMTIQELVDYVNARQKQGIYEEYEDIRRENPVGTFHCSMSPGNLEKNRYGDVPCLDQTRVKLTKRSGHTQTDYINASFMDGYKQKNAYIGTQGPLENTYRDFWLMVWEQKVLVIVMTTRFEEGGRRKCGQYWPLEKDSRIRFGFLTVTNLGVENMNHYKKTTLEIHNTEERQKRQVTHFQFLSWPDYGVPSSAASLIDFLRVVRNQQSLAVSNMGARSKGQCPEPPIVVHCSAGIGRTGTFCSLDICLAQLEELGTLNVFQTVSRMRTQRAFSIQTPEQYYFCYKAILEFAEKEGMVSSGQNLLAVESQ
test-details: PTP IC50 assay, pNPP or FDP as substrate
Type: biochemical
measurement-parameters: pNPP or FDP as substrate, 25° C.; read-out: PTP IC50 MEG2
readout-label: IC50 (µM)
State just the number; it will be interpreted in µM.

Take a look at these entries with their results.
- compound: "CCOC(=O)COc1ccc(S(=O)(=O)c2ccc(Oc3ccc(S(=O)(=O)C(F)(F)F)cc3)cc2)cc1 [Example 19]"
  tested-target: "PTP MEG2 (Homo sapiens, UniProt P43378)"
  unit-symbol: "µM"
  IC50: 52.2
- compound: "O=S(=O)(c1ccc(CCc2ccc(S(=O)(=O)C(F)(F)F)cc2)cc1)C(F)(F)F [Example 4]"
  tested-target: "PTP MEG2 (Homo sapiens, UniProt P43378)"
  unit-symbol: "µM"
  IC50: 45.9
- compound: "O=C(O)c1ccc(Oc2cccc(Oc3ccc(S(=O)(=O)C(F)(F)F)cc3)c2)cc1 [Example 18]"
  tested-target: "PTP MEG2 (Homo sapiens, UniProt P43378)"
  unit-symbol: "µM"
  IC50: 44

Continue with the next compound.
Value of measured IC50 for the entry CCOC(=O)c1cc(Oc2ccc(S(=O)(=O)C(F)(F)F)cc2[N+](=O)[O-])c(C(=O)OCC)cc1O [Example 26] : 90.8

* * *

// reported pIC50 per item
tested-target: PTP MU (Homo sapiens)
Construct: made in house; host or cells: E. coli BL-21 (pGEX 6P-1)
Sequence (P28827 831-1186 limits assumed): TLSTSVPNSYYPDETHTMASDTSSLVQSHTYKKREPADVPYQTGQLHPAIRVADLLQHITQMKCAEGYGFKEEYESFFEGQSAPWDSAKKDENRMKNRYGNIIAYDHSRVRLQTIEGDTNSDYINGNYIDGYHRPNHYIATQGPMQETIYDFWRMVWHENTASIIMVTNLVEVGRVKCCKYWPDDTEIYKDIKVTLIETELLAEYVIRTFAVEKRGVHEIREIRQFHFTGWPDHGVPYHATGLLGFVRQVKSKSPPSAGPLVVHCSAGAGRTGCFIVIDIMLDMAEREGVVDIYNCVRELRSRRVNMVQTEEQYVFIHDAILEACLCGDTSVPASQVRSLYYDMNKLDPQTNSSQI
test-details: PTP IC50 assay, pNPP or FDP as substrate
Assay type: biochemical
measurement-parameters: comparison of R groups; read-out: IC50 Mu
pIC50: −log10 of the molar value.

Bench note, PTP MU (Homo sapiens): CS(=O)(=O)Nc1ccc(Oc2ccc(Oc3ccc(NS(C)(=O)=O)cc3)cc2)cc1 [CH3SO2NH—] , pIC50 reads < 4.00

Measured pIC50 for this entry O=S(=O)(Nc1ccc(Oc2ccc(Oc3ccc(NS(=O)(=O)C(F)(F)F)cc3)cc2)cc1)C(F)(F)F [Example 71] on PTP MU (Homo sapiens): 5.40

Reading of pIC50 for Nc1ccc(Oc2ccc(Oc3ccc(N)cc3)cc2)cc1 [NH2] with PTP MU (Homo sapiens): < 4.00

* * *

IC50 overview
tested-target: PTP SHP2 (Homo sapiens, UniProt Q06124)
Construct: The catalytic domain was amplified using the following oligonucleotides; made in house; host or cells: Sf-9 insect cells (pFastBac-G2T)
Sequence (Q06124 247-517 limits assumed): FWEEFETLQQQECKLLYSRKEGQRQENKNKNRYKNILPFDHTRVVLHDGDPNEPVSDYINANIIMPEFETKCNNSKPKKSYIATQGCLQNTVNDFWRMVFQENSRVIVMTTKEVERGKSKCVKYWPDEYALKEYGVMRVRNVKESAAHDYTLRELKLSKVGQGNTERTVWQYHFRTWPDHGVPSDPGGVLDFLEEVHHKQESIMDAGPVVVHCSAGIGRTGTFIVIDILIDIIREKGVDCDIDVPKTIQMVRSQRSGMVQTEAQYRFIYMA
test-details: PTP IC50 assay, fluorescent substrate DiFMUP
Assay type: biochemical
measurement-parameters: DiFMUP as substrate, 25° C.; read-out: PTP IC50 SHP2
Report as a plain number; the unit µM is understood.

Worked cases, answers included:
- compound: "Cc1cc2cc(NS(=O)(=O)C(F)(F)F)ccc2n1CC(=O)OC(C)(C)C [Example 88]"
  tested-target: "PTP SHP2 (Homo sapiens, UniProt Q06124)"
  IC50 / µM: 31.4
- compound: "CCOC(=O)c1cc2cc(NS(=O)(=O)C(F)(F)F)ccc2n1C [Example 89]"
  tested-target: "PTP SHP2 (Homo sapiens, UniProt Q06124)"
  IC50 / µM: 69
- compound: "O=C(Cc1ccccc1CC(=O)Nc1ccc(S(=O)(=O)C(F)(F)F)cc1)Nc1ccc(S(=O)(=O)C(F)(F)F)cc1 [Example 32]"
  tested-target: "PTP SHP2 (Homo sapiens, UniProt Q06124)"
  IC50 / µM: 14.6
- compound: "CC(C)(C)OC(=O)Cn1c(C(=O)O)cc2cc(NS(=O)(=O)C(F)(F)F)ccc21 [Example 96]"
  tested-target: "PTP SHP2 (Homo sapiens, UniProt Q06124)"
  IC50 / µM: 9.1
- compound: "O=[N+]([O-])c1ccccc1NCC(O)COc1ccc(S(=O)(=O)C(F)(F)F)cc1[N+](=O)[O-] (centres unmarked) [Example 58]"
  tested-target: "PTP SHP2 (Homo sapiens, UniProt Q06124)"
  IC50 / µM: 4.4
- compound: "CCOC(=O)c1cc2cc(NS(=O)(=O)C(F)(F)F)ccc2n1CC(=O)OC(C)(C)C [Example 94]"
  tested-target: "PTP SHP2 (Homo sapiens, UniProt Q06124)"
  IC50 / µM: 1.5
- compound: "CCOC(=O)CNC(=O)C(c1ccc(S(=O)(=O)C(F)(F)F)cc1)N(C(=O)c1ccccc1)C1CCCCC1 (centres unmarked) [Example 48]"
  tested-target: "PTP SHP2 (Homo sapiens, UniProt Q06124)"
  IC50 / µM: 37.7

Read the next record carefully.
// sample O=C(Nc1ccccc1)c1cc2cc(NS(=O)(=O)C(F)(F)F)ccc2[nH]1 [Example 81] , its IC50 was 6.2

* * *

tested-target: PTP EPSILON (Homo sapiens, UniProt P23469)
Construct: made in house; host or cells: Sf-9 insect cells (pFastBac-G2T); a pGEX 6P-1 construct also existed
Sequence (P23469 80-393 limits assumed): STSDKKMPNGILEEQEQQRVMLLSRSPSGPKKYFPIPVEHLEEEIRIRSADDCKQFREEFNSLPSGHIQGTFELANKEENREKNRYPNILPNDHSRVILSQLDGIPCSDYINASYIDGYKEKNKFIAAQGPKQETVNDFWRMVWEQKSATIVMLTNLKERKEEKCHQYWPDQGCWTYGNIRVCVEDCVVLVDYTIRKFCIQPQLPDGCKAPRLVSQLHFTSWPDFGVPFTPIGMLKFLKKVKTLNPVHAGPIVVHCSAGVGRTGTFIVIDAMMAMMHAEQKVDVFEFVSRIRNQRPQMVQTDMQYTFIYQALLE
test-details: PTP IC50 assay, pNPP or FDP as substrate
Assay type: biochemical
measurement-parameters: pNPP or FDP as substrate, 25° C.; read-out: PTP IC50 Epilson
readout-label: IC50 (µM)
Report only the number, with the unit µM understood.

Past entries and their recorded results:
- item-smiles: "O=S(=O)(Nc1ccc(Oc2ccc(NS(=O)(=O)C(F)(F)F)cc2)cc1)C(F)(F)F"
  numeric-result: 23.1
- item-smiles: "Cc1cc(NS(=O)(=O)C(F)(F)F)ccc1CCc1ccc(NS(=O)(=O)C(F)(F)F)cc1C"
  numeric-result: 50.8
- item-smiles: "COC(=O)c1c(Oc2ccc(S(=O)(=O)C(F)(F)F)cc2[N+](=O)[O-])cc(C)cc1Oc1ccc(S(=O)(=O)C(F)(F)F)cc1[N+](=O)[O-]"
  numeric-result: 80.4
- item-smiles: "O=C(O)Cc1cccc(CC(=O)Nc2cccc(S(=O)(=O)C(F)(F)F)c2)c1"
  numeric-result: 3.1

"O=C(c1ccccc1)N(Cc1ccc(S(=O)(=O)C(F)(F)F)cc1)Cc1ccc(S(=O)(=O)C(F)(F)F)cc1" has a reported IC50 of 28.1

* * *

tested-target: PTP BETA (Homo sapiens, UniProt P23467)
Construct: The catalytic domain was amplified using the following oligonucleotides; made in house; host or cells: E. coli BL-21 (pGEX 6P-1)
Sequence (P23467 1653-1997): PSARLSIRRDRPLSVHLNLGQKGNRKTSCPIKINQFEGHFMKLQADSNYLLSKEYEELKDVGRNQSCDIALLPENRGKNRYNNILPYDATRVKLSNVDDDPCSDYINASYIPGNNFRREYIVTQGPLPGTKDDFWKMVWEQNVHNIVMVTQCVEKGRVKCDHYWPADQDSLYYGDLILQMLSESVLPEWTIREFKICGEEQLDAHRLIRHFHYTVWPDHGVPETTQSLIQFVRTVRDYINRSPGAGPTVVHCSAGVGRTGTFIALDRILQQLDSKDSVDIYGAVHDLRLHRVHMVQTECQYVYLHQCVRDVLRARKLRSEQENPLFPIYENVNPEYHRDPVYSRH
test-details: PTP IC50 assay, pNPP or FDP as substrate
Format: biochemical
measurement-parameters: pNPP or FDP as substrate, 25° C.; read-out: PTP IC50 Beta
readout-label: pIC50
Scale note: pIC50 = -log10(concentration in M).

// solved cases for pIC50 follow
- molecule: "CCNc1ccc(S(=O)(=O)C(F)(F)F)cc1NC(=O)Cc1ccc(S(C)(=O)=O)cc1"
  pIC50: 6.46
- molecule: "O=S(=O)(c1ccc(COCc2ccc(S(=O)(=O)C(F)(F)F)cc2)cc1)C(F)(F)F"
  pIC50: 5.23
- molecule: "CCOC(=O)COc1ccc(S(=O)(=O)c2ccc(Oc3ccc(S(=O)(=O)C(F)(F)F)cc3[N+](=O)[O-])cc2)cc1"
  pIC50: 4.59

pIC50 for PTP BETA (Homo sapiens, UniProt P23467) with input "Cc1cc(NS(=O)(=O)C(F)(F)F)ccc1CCc1ccc(NS(=O)(=O)C(F)(F)F)cc1C" equals 4.25

Entry "O=C(O)c1ccc(Oc2cccc(Oc3ccc(S(=O)(=O)C(F)(F)F)cc3)c2)cc1" under PTP BETA (Homo sapiens, UniProt P23467) had pIC50 of 4.87

"O=[N+]([O-])c1cc(S(=O)(=O)C(F)(F)F)ccc1SSc1ccc(S(=O)(=O)C(F)(F)F)cc1[N+](=O)[O-]" tested on PTP BETA (Homo sapiens, UniProt P23467) gave pIC50: 4.58

Lab note: molecule CN(C)CC(COc1ccc(S(=O)(=O)C(F)(F)F)cc1[N+](=O)[O-])Oc1ccc(S(=O)(=O)C(F)(F)F)cc1[N+](=O)[O-] (stereo not shown) tested on PTP BETA (Homo sapiens, UniProt P23467); recorded pIC50 was 5.29

Measured pIC50 for this entry "O=S(=O)(c1ccc(CCc2ccc(S(=O)(=O)C(F)(F)F)cc2)cc1)C(F)(F)F" on PTP BETA (Homo sapiens, UniProt P23467): 5.17

Record "COC(=O)c1ccc(OCCOc2ccc(S(=O)(=O)C(F)(F)F)cc2[N+](=O)[O-])cc1" ; system PTP BETA (Homo sapiens, UniProt P23467); pIC50 = 4.87

I looked up "CCOC(=O)COc1ccc(S(=O)(=O)c2ccc(Oc3ccc(S(=O)(=O)C(F)(F)F)cc3)cc2)cc1" and its pIC50 for PTP BETA (Homo sapiens, UniProt P23467) was 5.72

The recorded pIC50 with PTP BETA (Homo sapiens, UniProt P23467) for "O=[N+]([O-])c1cc(S(=O)(=O)C(F)(F)F)ccc1Oc1cc(CN2CCOCC2)c(Oc2ccc(S(=O)(=O)C(F)(F)F)cc2[N+](=O)[O-])cc1CN1CCOCC1" was 5.96

// returns pIC50 for "O=C(Cc1ccccc1CC(=O)Nc1cccc(S(=O)(=O)C(F)(F)F)c1)Nc1cccc(S(=O)(=O)C(F)(F)F)c1" with PTP BETA (Homo sapiens, UniProt P23467); value = 5.06

Form: item "CC(C)(c1ccc(NS(=O)(=O)C(F)(F)F)cc1)c1ccc(C(C)(C)c2ccc(NS(=O)(=O)C(F)(F)F)cc2)cc1" ; test system PTP BETA (Homo sapiens, UniProt P23467); pIC50: 5.19

Sample "O=S(=O)(c1ccc(COc2ccc(S(=O)(=O)C(F)(F)F)cc2)cc1)C(F)(F)F" , system: PTP BETA (Homo sapiens, UniProt P23467). Its pIC50 is 5.46

Recorded pIC50 for "O=C(Cc1ccc(CC(=O)Nc2cccc(S(=O)(=O)C(F)(F)F)c2)cc1)Nc1cccc(S(=O)(=O)C(F)(F)F)c1" on PTP BETA (Homo sapiens, UniProt P23467) was 5.85

"CCOC(=O)c1cc(Oc2ccc(S(=O)(=O)C(F)(F)F)cc2[N+](=O)[O-])c(C(=O)OCC)cc1O" on PTP BETA (Homo sapiens, UniProt P23467) gives pIC50 = 5.54

Fill in: PTP BETA (Homo sapiens, UniProt P23467) pIC50 for "O=C(NCc1ccc(S(=O)(=O)C(F)(F)F)cc1)c1ccc(S(=O)(=O)C(F)(F)F)cc1" = 4.35
